- System: HCMV
- experiment notes: HCMV/HFF antiviral assay
- Format: cell-based
- measurement setup: Human betaherpesvirus 5, HFF
Exercise: state measured EC50 for each of the compounds provided.

[ask] EC50 of `CCOc1nc(N)nc2c1ncn2[C@@H]1O[C@](F)(CO)[C@@H](O)[C@@]1(C)Cl` on HCMV?
[reply] > 10 µM

[ask] Here is the next compound: `CCOc1nc(N)nc2c1ncn2[C@@H]1O[C@](F)(CO)[C@@H](O)C1(F)F`
[reply] > 10 µM

[ask] Here is the next compound: `CCOc1nc(N)nc2c1ncn2[C@@H]1O[C@](F)(CO)[C@@H](O)[C@]1(F)Cl`
[reply] > 10 µM

[ask] Here is the next compound: `O=c1[nH]cnc2c1ccn2[C@@H]1O[C@](F)(CO)[C@@H](O)[C@H]1O`
[reply] > 10 µM

[ask] Here is the next compound: CCOc1nc(N)nc2c1ncn2[C@@H]1O[C@](F)(COP(=O)(N[C@@H](C)C(=O)OC(C)C)Oc2ccccc2)[C@@H](O)C1(F)F (some centres unmarked)
[reply] > 10 µM

[ask] Here is the next compound: `Nc1ncnc2c1ccn2[C@@H]1O[C@@](CO)(CF)[C@@H](O)[C@H]1O`
[reply] > 10 µM

[ask] Here is the next compound: `OC[C@@]1(F)O[C@@H](n2cc(Cl)c3cncnc32)[C@H](O)[C@@H]1O`
[reply] 0.1 to 1 µM

[ask] Here is the next compound: `OC[C@@]1(F)O[C@@H](n2cc(Br)c3cncnc32)[C@H](O)[C@@H]1O`
[reply] 1 to 10 µM

All figures here come from patent US20260325561A1.
